# Tested on: Plasmodium berghei
# test.name: Screen against P. berghei liver stage (PbLuc), transformed with Luciferase, at 10uM
# Assay type: functional, HepG2
# settings: tested at 10 uM
Screen size: about 69,000 compounds; about 8,600 (12%) showed an effect of 50% or more. Many of the other results were omitted from the sample, so strong results are more common in it than they were.
Kindly return yes if reported INHIBITION is no lower than 30%; return no if it is lower.

These solved cases illustrate the format of a correct answer.
molecule	label
COc1ccc2c(c1)ncn2C[C@]1(O)CCCN2CCCC[C@@H]21	yes
Cc1nnc(CN(C)CC2CCCCC2)o1	no
C[S+]([O-])CCNC(=O)N1CCN(c2cc(F)ccc2F)CC1 (stereo not drawn)	no
O=C(CN1C[C@@H]2CC[C@H]1CN(Cc1ccccn1)C2)NCc1cccs1	yes

Lookup: Please check the record Cc1ccccc1CC1(CO)CCCN(c2ncccc2C#N)C1 (stereo not drawn) and state if its INHIBITION is at or above 30%.
Found: yes

Lookup: Please check the record CC(=O)N1CCCC(c2ncncc2-c2ccncc2)C1 (stereo not drawn) and state if its INHIBITION is at or above 30%.
Found: no

Lookup: Please check the record CCc1nnc(CN(C)CC2CCCCC2)o1 and state if its INHIBITION is at or above 30%.
Found: yes

Lookup: Please check the record CCOc1ccnc(N2CCN(C(=O)c3ccc(OC)cc3)CC2)n1 and state if its INHIBITION is at or above 30%.
Found: yes

Lookup: Please check the record O=C(c1cn(CC(=O)N2CCCC2)c2ccccc12)C1CC1 and state if its INHIBITION is at or above 30%.
Found: yes

Lookup: Please check the record c1ccc2c(c1)CN(c1ncnc3c1CCNC3)CCO2 and state if its INHIBITION is at or above 30%.
Found: no

Lookup: Please check the record Cc1cc(C)c(CNC(=O)CCC2CCCO2)c(=O)[nH]1 (stereo not drawn) and state if its INHIBITION is at or above 30%.
Found: no

Lookup: Please check the record c1ccn2c(C3CCCN(c4ncnc5c4CCNC5)C3)nnc2c1 (stereo not drawn) and state if its INHIBITION is at or above 30%.
Found: no

Lookup: Please check the record CS(=O)(=O)NC(=O)c1ccn(-c2cccc(Br)c2)n1 and state if its INHIBITION is at or above 30%.
Found: no

Lookup: Please check the record CCC(C)N(C)CCNC(=O)c1ccccc1OCCOC (stereo not drawn) and state if its INHIBITION is at or above 30%.
Found: no

Lookup: Please check the record CC(C)N1CCCC(c2cc(C(F)(F)F)nc3nccn23)C1 (stereo not drawn) and state if its INHIBITION is at or above 30%.
Found: no

Lookup: Please check the record Cc1cccnc1CN1CCN(C(=O)[C@@]23CNC[C@@H]2CN(C)C3)CC1 and state if its INHIBITION is at or above 30%.
Found: yes

Lookup: Please check the record CN1CC2(CCN(c3ncnc4c3CCNC4)CC2)OC1=O and state if its INHIBITION is at or above 30%.
Found: yes

Lookup: Please check the record CC(Cn1cccn1)n1cnc2cccc(Cl)c2c1=O (stereo not drawn) and state if its INHIBITION is at or above 30%.
Found: yes

Lookup: Please check the record CC(=O)NC1CCN(c2ccnc(C3CCNCC3)c2)CC1 and state if its INHIBITION is at or above 30%.
Found: no

Lookup: Please check the record CN(CC(N)=O)CC(=O)N1CC=C(c2ccccc2)CC1 and state if its INHIBITION is at or above 30%.
Found: no

Lookup: Please check the record CC(=O)NCC(=O)NC1CCc2nccn2C1 (stereo not drawn) and state if its INHIBITION is at or above 30%.
Found: yes

Lookup: Please check the record CN(C)c1ncc(-c2cncnc2)c(C2CNCCO2)n1 (stereo not drawn) and state if its INHIBITION is at or above 30%.
Found: no

Lookup: Please check the record Clc1cccc(Cl)c1CN(CCCN1CCOCC1)Cc1cccnc1 and state if its INHIBITION is at or above 30%.
Found: no

Lookup: Please check the record COCCn1c(=O)n(C)c(=O)c2ccc(C3CCC(CN)CC3)nc21 (stereo not drawn) and state if its INHIBITION is at or above 30%.
Found: yes

Lookup: Please check the record CN1[C@H](CN2CCCC2)C[C@@H]2CN(C(=O)Cc3cccs3)CC[C@@H]21 and state if its INHIBITION is at or above 30%.
Found: yes

Lookup: Please check the record CNc1nc(CNC(=O)Nc2ccc([S+](C)[O-])c(F)c2)cs1 (stereo not drawn) and state if its INHIBITION is at or above 30%.
Found: no

Lookup: Please check the record Clc1cccc(C2CCN(c3ncnc4c3CCNC4)C2)c1 (stereo not drawn) and state if its INHIBITION is at or above 30%.
Found: yes

Lookup: Please check the record Cc1csc(NC(=O)C(C)Oc2ccc3c(c2)OCO3)n1 (stereo not drawn) and state if its INHIBITION is at or above 30%.
Found: no
